Hello, the source for this data is the supplement of paper PMC11316812, in case you need it.

Test system: MCF7
Run description: percentage of EdU-negative (G0-arrested) nuclei per well, 72 h; higher = more G0 arrest;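 further: secreted proteins added to cultured cells, EdU pulse at the end, nuclei found by Hoechst imaging, EdU status from nuclear versus surrounding ring intensity ratio, PBS as neutral control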
Experimental conditions: protein concentration 0.3125 µM; reference: sequence is the full UniProt precursor, the tested protein was the secreted form or ectodomain
Quantity name: percentage of EdU-negative (%)
// return numeric value only (unit: %, not printed)

Before answering, review these 3 worked examples.
>>> reported_value("MAGPLRAPLLLLAILAVALAVSPAAGSSPGKPPRLVGGPMDASVEEEGVRRALDFAVGEYNKASNDMYHSRALQVVRARKQIVAGVNYFLDVELGRTTCTKTQPNLDNCPFHDQPHLKRKAFCSFQIYAVPWQGTMTLSKSTCQDA")
26.6
>>> reported_value("MAGPATQSPMKLMALQLLLWHSALWTVQEATPLGPASSLPQSFLLKCLEQVRKIQGDGAALQEKLVSECATYKLCHPEELVLLGHSLGIPWAPLSSCPSQALQLAGCLSQLHSGLFLYQGLLQALEGISPELGPTLDTLQLDVADFATTIWQQMEELGMAPALQPTQGAMPAFASAFQRRAGGVLVASHLQSFLEVSYRVLRHLAQP")
27.5
>>> reported_value("MIPAKDMAKVMIVMLAICFLTKSDGKSVKKRSVSEIQLMHNLGKHLNSMERVEWLRKKLQDVHNFVALGAPLAPRDAGSQRPRKKEDNVLVESHEKSLGEADKADVNVLTKAKSQ")
25

# get_value(readout= percentage of EdU-negative, system= MCF7) for `MGPLSAPPCTQHITWKGLLLTASLLNFWNLPITAQVTIEALPPKVSEGKDVLLLVHNLPQNLAGYIWYKGQLMDLYHYITSYVVDGQINIYGPAYTGRETVYSNASLLIQNVTREDAGSYTLHIIKRGDRTRGVTGYFTFNLYLKLPKPYITINNSKPRENKDVLAFTCEPKSENYTYIWWLNGQSLPVSPRVKRPIENRILILPSVTRNETGPYECEIRDRDGGMRSDPVTLNVLYGPDLPSIYPSFTYYRSGENLYLSCFAESNPPAEYFWTINGKFQQSGQKLSIPQITTKHRGLYTCSVRNSATGKESSKSMTVEVSAPSGIGRLPLLNPI` 26.9

====

Test system: hTERT-HMEC
Run description: percentage of EdU-negative (G0-arrested) nuclei per well, 72 h; higher = more G0 arrest
Experimental conditions: protein concentration 0.0225 µM; reference: sequence is the full UniProt precursor, the tested protein was the secreted form or ectodomain
Quantity name: percentage of EdU-negative
Give the number first and the unit second.

Given `MQMPAMMSLLLVSVGLMEALQAQSHPITRRDLFSQEIQLDMALASFDDQYAGCAAAMTAALPDLNHTEFQANQVYADSWTLASSQWQERQARWPEWSLSPTRPSPPPLGFRDEHGVALLAYTANSPLHKEFNAAVREAGRSRAHYLHHFSFKTLHFLLTEALQLLGSGQRPPRCHQVFRGVHGLRFRPAGPRATVRLGGFASASLKHVAAQQFGEDTFFGIWTCLGAPIKGYSFFPGEEEVLIPPFETFQVINASRLAQGPARIYLRALGKHSTYNCEYIKDKKCKSGPCHLDNSAMGQSPLSAVWSLLLLLWFLVVRAFPDGPGLL` , state its recorded percentage of EdU-negative. 5.13%

====

System: MCF7
Run description: percentage of EdU-negative (G0-arrested) nuclei per well, 72 h; higher = more G0 arrest
Experimental conditions: protein concentration 0.0225 µM; reference: sequence is the full UniProt precursor, the tested protein was the secreted form or ectodomain
Quantity name: percentage of EdU-negative (%)
Report as a plain number; the unit % is understood.

>>> reported_value("MNGFASLLRRNQFILLVLFLLQIQSLGLDIDSRPTAEVCATHTISPGPKGDDGEKGDPGEEGKHGKVGRMGPKGIKGELGDMGDQGNIGKTGPIGKKGDKGEKGLLGIPGEKGKAGTVCDCGRYRKFVGQLDISIARLKTSMKFVKNVIAGIRETEEKFYYIVQEEKNYRESLTHCRIRGGMLAMPKDEAANTLIADYVAKSGFFRVFIGVNDLEREGQYMFTDNTPLQNYSNWNEGEPSDPYGHEDCVEMLSSGRWNDTECHLTMYFVCEFIKKKK [Q9Y6Z7]")
24.4

Next sequence, percentage of EdU-negative to be filled in.
# get_value(readout='percentage of EdU-negative', item= MLLAWVQAFLVSNMLLAEAYGSGGCFWDNGHLYREDQTSPAPGLRCLNWLDAQSGLASAPVSGAGNHSYCRNPDEDPRGPWCYVSGEAGVPEKRPCEDLRCPETTSQALPAFTTEIQEASEGPGADEVQVFAPANALPARSEAAAVQPVIGISQRVRMNSKEKKDLGTLGYVLGITMMVIIIAIGAGIILGYSYKRGKDLKEQHDQKVCEREMQRITLPLSAFTNPTCEIVDEKTVVVHTSQTPVDPQEGTTPLMGQAGTPGA [Q96FE7] ) 24.9
